- System: hSC-CMs (Cor.4U Cardiomyocytes)
- test_method_notes: ATP assay (CellTiter-Glo Luminescent Cell Viability Assay)
- Format: cell-based, human
- condition_context: hSC-CMs, up to the highest test concentrations
quantity_measured: Effect on ATP level, in words

[[record]]
compound = "CC(C)(C)NS(=O)(=O)c1cncc(-c2cc(F)c3nc(N)nn3c2)c1"
obs_value = "did not have any effect"

[[record]]
compound = "Cc1cc(C(C)Nc2ccccc2)c2nc(N3CCOCC3)cc(=O)n2c1 (centres unmarked)"
obs_value = "did not have any effect"


---

- Test system: hSC-CMs (Cor.4U Cardiomyocytes)
- test_method_notes: ATP assay (CellTiter-Glo Luminescent Cell Viability Assay)
- Format: cell-based, human
- condition_context: Homo sapiens, Cardiomyocyte; 0.3 µM, 2h; normalized to time-matched DMSO control
- Procedure: Cor.4U® Cardiomyocytes (Ncardia, Netherlands) were cultured in 96-well plates at density of 25,000 – 30,000 cells per well. Cells were maintained at 5% CO2 and 37 °C for 4 days prior to experiments. […] The CellTiter-Glo Luminescent Cell Viability Assay (cat# G7572, Promega, USA) was performed for quantification of the cellular ATP concentration according to manufacturer's instructions. […] The measured ATP concentration values were normalized to the time-matched DMSO controls. […]
quantity_measured: viability at 0.3 µM (%)
API: value field is a number in %; no unit string.

The cases that follow already have their viability at 0.3 µM on record.
[[record]]
molecule = "Cn1cc(C2=C(c3ccc(Cl)cc3Cl)C(=O)NC2=O)c2ccccc21 [SB 216763]"
target_or_system = "hSC-CMs (Cor.4U Cardiomyocytes)"
quantity_measured = "viability at 0.3 µM"
obs_value = 91

[[record]]
molecule = "O=S(=O)(c1cccc2cnccc12)N1CCCNCC1 [Fasudil]"
target_or_system = "hSC-CMs (Cor.4U Cardiomyocytes)"
quantity_measured = "viability at 0.3 µM"
obs_value = 87

[[record]]
molecule = "Cc1c[nH]c(-c2cnc(NCCNc3ccc(C#N)cn3)nc2-c2ccc(Cl)cc2Cl)n1 [CHIR99021]"
target_or_system = "hSC-CMs (Cor.4U Cardiomyocytes)"
quantity_measured = "viability at 0.3 µM"
obs_value = 93


Please find the next molecule below.
Query: Given the molecule O=c1cc(N2CCOCC2)oc2c(-c3ccccc3)cccc12 [LY 294002] , what is its reported viability at 0.3 µM?
Response: 85
